B1: WW domain-containing transcription regulator protein 1, residues 116 to 162; numbered along this chain, Q9GZV5 (parent)
chain: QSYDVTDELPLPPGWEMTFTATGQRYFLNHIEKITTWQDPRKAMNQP

# Variants of: B1
# test-protocol: abundance fitness (aPCA) (normalised: wild type 0, dead -1); higher = more abundant; growth selection in yeast, the domain comes from the species named
# stated-conditions: Homo sapiens
Please enter true where abundance fitness is greater than or equal to -0.2, and false where it is lower.

Completed entries (count: 6):
mutation-name: E32F
group: true

mutation-name: G14Y
group: false

mutation-name: A43W
group: true

mutation-name: H30D
group: false

mutation-name: T35W
group: false

mutation-name: D4Y
group: true

// next entry
*Q* Is it the case that `W37A` has abundance fitness reaching or exceeding -0.2?
*A* false
